target: EEF2 Elongation factor 2 (Homo sapiens); construct: isoTOP-ABPP experiments performed in cell lysates (in vitro); endogenous in cells; host or cells: soluble proteome of human cancer cell lines (MDA-MB-231; Ramos and Jurkat also prepared); assay: competitive isoTOP-ABPP; assay type: binding; settings: 50 uM, in vitro, sol, 231
Recorded isoTOP-ABPP ratio (R) at liganded lysine P13639_K318 values for a group of compounds are listed next.
Lab note: write the figure by itself, no unit.

CC(=O)Oc1ccc([N+](=O)[O-])cc1[N+](=O)[O-] [fragment 43, 2,4-Dinitrophenyl acetate]    1.2

Record O=C(Oc1ccc([N+](=O)[O-])cc1[N+](=O)[O-])c1ccccc1Nc1cccc(C(F)(F)F)c1 [fragment 40] : what is its isoTOP-ABPP ratio (R) at liganded lysine P13639_K318 with EEF2 Elongation factor 2 (Homo sapiens)? 0.9

Record O=C(Oc1ccc([N+](=O)[O-])cc1[N+](=O)[O-])c1ccc(Oc2ccccc2)cc1 [fragment 39, 2,4-Dinitrophenyl 4-phenoxybenzoate] : what is its isoTOP-ABPP ratio (R) at liganded lysine P13639_K318 with EEF2 Elongation factor 2 (Homo sapiens)? 0.9

Record O=C(Oc1ccc([N+](=O)[O-])cc1[N+](=O)[O-])C(c1ccccc1)(c1ccccc1)c1ccccc1 [fragment 42, 2,4-Dinitrophenyl 2,2,2-triphenylacetate] : what is its isoTOP-ABPP ratio (R) at liganded lysine P13639_K318 with EEF2 Elongation factor 2 (Homo sapiens)? 1.0

----------
Recorded isoTOP-ABPP reactivity ratio at lysine Q2M389_K302 values for a group of molecules are listed next.
molecular target: KIAA1033 WASH complex subunit 7 (Homo sapiens); construct: isoTOP-ABPP experiments performed in cell lysates (in vitro); endogenous in cells; host or cells: soluble proteome of human cancer cell lines (MDA-MB-231; Ramos and Jurkat also prepared); assay: competitive isoTOP-ABPP; format: binding; conditions: 50 uM, 231 sol, in vitro
Sequence (Q2M389 whole entry, one chain of several): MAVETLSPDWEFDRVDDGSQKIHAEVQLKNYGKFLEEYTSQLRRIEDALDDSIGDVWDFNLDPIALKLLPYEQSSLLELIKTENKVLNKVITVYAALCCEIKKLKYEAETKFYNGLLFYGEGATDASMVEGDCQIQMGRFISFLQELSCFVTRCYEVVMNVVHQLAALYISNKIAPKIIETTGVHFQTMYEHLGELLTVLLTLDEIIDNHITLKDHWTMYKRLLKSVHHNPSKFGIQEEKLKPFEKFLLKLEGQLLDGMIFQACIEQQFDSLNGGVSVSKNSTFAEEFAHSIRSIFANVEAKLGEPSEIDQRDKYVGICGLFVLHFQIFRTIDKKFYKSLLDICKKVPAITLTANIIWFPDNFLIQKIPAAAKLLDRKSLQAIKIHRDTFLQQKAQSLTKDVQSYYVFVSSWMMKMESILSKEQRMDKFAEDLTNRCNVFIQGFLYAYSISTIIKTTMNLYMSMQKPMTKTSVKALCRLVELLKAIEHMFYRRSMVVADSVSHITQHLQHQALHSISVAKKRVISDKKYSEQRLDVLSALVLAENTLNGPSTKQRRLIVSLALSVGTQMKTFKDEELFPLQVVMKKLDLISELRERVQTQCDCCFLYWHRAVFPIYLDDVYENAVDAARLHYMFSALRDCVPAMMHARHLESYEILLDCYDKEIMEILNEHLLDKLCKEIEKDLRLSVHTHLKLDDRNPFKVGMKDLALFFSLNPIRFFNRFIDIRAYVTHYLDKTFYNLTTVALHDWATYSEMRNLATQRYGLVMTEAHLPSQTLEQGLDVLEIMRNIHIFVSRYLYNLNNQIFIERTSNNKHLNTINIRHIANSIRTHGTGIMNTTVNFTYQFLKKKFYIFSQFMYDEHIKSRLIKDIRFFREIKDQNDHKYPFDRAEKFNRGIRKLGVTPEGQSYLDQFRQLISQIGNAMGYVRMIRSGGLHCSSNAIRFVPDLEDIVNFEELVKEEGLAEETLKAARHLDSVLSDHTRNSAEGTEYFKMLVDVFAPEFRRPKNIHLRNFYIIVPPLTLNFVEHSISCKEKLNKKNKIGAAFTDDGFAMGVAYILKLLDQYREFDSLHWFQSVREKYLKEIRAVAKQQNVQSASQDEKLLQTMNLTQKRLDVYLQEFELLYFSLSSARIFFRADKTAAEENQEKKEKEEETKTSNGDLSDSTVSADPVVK
Lab note: write the figure by itself, no unit.

Check out these entries, answers already filled in.
O=C(Oc1c(F)c(F)c(F)c(F)c1F)C1CCN(C(=O)OCc2ccccc2)CC1 [fragment 24]    1.0
O=C(Oc1ccc([N+](=O)[O-])cc1[N+](=O)[O-])C(c1ccccc1)c1ccccc1 [fragment 30, 2,4-Dinitrophenyl 2,2-diphenylacetate]    1.6
COc1cc(CCC(=O)Oc2ccc([N+](=O)[O-])cc2[N+](=O)[O-])cc(OC)c1OC [fragment 33]    0.9
O=C(CCc1cn(-c2ccccc2)nc1-c1ccccc1)Oc1ccc([N+](=O)[O-])cc1[N+](=O)[O-] [fragment 29]    1.1

Field: next molecule
Value lookup for isoTOP-ABPP reactivity ratio at lysine Q2M389_K302; key = O=C(CCc1coc2cc(F)ccc2c1=O)Oc1c(F)c(F)c(F)c(F)c1F [fragment 26] 1.8

----------
molecular target: SIN3A Paired amphipathic helix protein Sin3a (Homo sapiens); construct: isoTOP-ABPP experiments performed in cell lysates (in vitro); endogenous in cells; host or cells: soluble proteome of human cancer cell lines (MDA-MB-231; Ramos and Jurkat also prepared); assay: competitive isoTOP-ABPP; format: binding; settings: 50 uM_231_sol_in vitro; possible other lysine Q96ST3_K152
Sequence (Q96ST3 whole entry): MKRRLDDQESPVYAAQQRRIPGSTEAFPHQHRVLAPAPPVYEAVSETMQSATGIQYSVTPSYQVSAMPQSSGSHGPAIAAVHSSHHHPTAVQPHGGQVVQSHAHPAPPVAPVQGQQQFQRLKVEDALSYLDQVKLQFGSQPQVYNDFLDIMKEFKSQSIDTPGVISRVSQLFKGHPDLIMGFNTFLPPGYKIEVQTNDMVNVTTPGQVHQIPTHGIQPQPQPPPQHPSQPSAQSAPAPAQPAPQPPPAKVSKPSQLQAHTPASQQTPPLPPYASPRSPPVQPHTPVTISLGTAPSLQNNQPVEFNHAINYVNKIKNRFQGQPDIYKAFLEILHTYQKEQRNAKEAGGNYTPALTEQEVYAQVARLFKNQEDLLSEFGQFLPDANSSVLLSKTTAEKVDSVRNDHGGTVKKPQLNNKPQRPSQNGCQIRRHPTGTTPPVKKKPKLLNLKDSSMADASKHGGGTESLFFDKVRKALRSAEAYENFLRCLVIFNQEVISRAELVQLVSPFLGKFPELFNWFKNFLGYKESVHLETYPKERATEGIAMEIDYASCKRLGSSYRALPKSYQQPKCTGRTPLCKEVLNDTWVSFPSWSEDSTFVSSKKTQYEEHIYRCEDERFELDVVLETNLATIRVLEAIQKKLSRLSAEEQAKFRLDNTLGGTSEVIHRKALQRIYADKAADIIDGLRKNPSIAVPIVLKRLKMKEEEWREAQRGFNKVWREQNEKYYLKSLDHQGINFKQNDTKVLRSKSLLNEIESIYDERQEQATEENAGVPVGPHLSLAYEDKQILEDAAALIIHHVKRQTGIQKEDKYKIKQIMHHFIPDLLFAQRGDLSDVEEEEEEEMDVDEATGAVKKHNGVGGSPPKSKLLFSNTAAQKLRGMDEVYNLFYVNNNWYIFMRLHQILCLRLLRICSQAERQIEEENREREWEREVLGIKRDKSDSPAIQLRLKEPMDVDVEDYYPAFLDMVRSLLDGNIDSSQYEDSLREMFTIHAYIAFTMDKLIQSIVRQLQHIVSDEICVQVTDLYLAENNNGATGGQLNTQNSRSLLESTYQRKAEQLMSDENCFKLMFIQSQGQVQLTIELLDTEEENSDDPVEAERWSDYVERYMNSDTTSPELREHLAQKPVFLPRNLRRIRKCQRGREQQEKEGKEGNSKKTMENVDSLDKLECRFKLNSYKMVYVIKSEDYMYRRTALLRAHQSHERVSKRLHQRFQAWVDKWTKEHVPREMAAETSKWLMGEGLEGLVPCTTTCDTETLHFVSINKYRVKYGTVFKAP
Please use True for isoTOP-ABPP ratio, lysine Q96ST3_K155 under 2 and False for everything else, ties included.

For orientation, consider the following solved cases.
N#Cc1ccc(C(=O)Oc2ccc([N+](=O)[O-])cc2[N+](=O)[O-])cc1 [fragment 44, 2,4-Dinitrophenyl 4-cyanobenzoate]    True
O=C(Oc1c(F)c(F)cc(F)c1F)c1cc(C(F)(F)F)cc(C(F)(F)F)c1    False
NC(=O)c1cc(C(F)(F)F)cc(C(F)(F)F)c1 [fragment 51, reference compound]    True
O=C(ON1C(=O)CCC1=O)c1cc(C(F)(F)F)cc(C(F)(F)F)c1    False
O=C(Oc1c(F)c(F)c(C(F)(F)F)c(F)c1F)c1cc(C(F)(F)F)cc(C(F)(F)F)c1    True

In the record for O=C(CCc1ccc2c(c1)OCO2)Oc1ccc([N+](=O)[O-])cc1[N+](=O)[O-] , is isoTOP-ABPP ratio, lysine Q96ST3_K155 less than 2? True
